The values you see were collected from paper PMC12367827.

# tested_on: CYP2C19 (Homo sapiens, UniProt P33261)
# Sequence (P33261 whole entry): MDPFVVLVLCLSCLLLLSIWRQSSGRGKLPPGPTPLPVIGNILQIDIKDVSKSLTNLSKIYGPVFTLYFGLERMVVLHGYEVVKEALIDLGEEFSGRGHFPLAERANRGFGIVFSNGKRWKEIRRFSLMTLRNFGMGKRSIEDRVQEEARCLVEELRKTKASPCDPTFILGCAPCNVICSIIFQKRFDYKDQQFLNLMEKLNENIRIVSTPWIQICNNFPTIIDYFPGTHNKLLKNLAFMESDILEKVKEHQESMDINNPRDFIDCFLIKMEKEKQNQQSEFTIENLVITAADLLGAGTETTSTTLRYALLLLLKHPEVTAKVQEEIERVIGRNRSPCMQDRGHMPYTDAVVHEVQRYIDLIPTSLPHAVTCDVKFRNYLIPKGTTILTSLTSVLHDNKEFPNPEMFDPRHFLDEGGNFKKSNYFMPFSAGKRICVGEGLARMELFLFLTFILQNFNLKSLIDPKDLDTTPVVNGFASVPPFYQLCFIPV
assay_endpoint: pIC50
By convention, pIC50 is the negative base-10 log of a molar concentration.

**Q:** Query (molecule): CCCCCCCCCC(=O)N(C)C [NDA, N,N-dimethyldecanamide] ; field requested: pIC50
**A:** 5.39
